test system: UACC-257; test: NCI tumour cell line growth inhibition, 48 h
Activity calls are given as the source filed them. Cut-off read from the data, not from the text of the source: active = GI50 up to about 1.1 µM and inactive = higher. Peptide text beside a SMILES is read from it. * marks the point of attachment. Cbz = O=C(OCc1ccccc1)*; NHNH2 = NN*
For each of the molecules below, state its GI50.

Sure, the documented GI50 for `O=C(/C=C/c1ccc(O)cc1)c1cc(Cl)ccc1O` is 71.8 µM (inactive)

Sure, the documented GI50 for COc1ccc(C2=NN(C(=O)c3ccccc3)C(O)(c3cc(F)c(Cl)cc3Cl)C2)cc1OC (stereo unspecified) is 60.4 µM (inactive)

Sure, the documented GI50 for `CS/C(=N/C(=O)c1ccccc1Cl)SCCS/C(=N\C(=O)c1ccccc1Cl)SC` is > 100 µM (inactive)

Sure, the documented GI50 for `NC(=O)c1cc2cc(Cl)cc(Cl)c2o/c1=N\c1ccc(F)cc1` is 19.5 µM (inactive)

Sure, the documented GI50 for `Cc1c(C(=O)/C=C/c2ccccc2[N+](=O)[O-])[n+]([O-])c2ccccc2[n+]1[O-]` is 7.53 µM (inactive)

Sure, the documented GI50 for `O=C1Nc2ccccc2C1=Nc1ccc(S(=O)(=O)Nc2nccs2)cc1` is > 100 µM (inactive)

Sure, the documented GI50 for `c1ccc(P(=Nc2ccccc2N=P(c2ccccc2)(c2ccccc2)c2ccccc2)(c2ccccc2)c2ccccc2)cc1` is 0.386 µM (active)

Sure, the documented GI50 for C=C(C)C(=O)OC1CCC2(C)C(CCC3C2CCC2(C)C(c4ccc(=O)oc4)CC4OC432)C1 (stereo unspecified) is 2.96 µM (inactive)

Sure, the documented GI50 for `CC(=O)O/C(=C1\C[C@H]2[C@@H]3CC=C4C[C@@H](OC(C)=O)CC[C@]4(C)[C@H]3CC[C@]2(C)C1=O)C(F)(F)F` is 6.98 µM (inactive)

Sure, the documented GI50 for `[N-]=[N+]=NC12CC3C4CC5CC3C(C1)C(C5)C4C2` is > 100 µM (inactive)

Sure, the documented GI50 for CCOC(=O)C1C2C1C1C(C(=O)OCC)C21 (stereo unspecified) is 61 µM (inactive)

Sure, the documented GI50 for `O=C1Nc2c(Cl)cc(Cl)cc2/C1=N/N=C/c1ccccc1O` is 23.5 µM (inactive)

Sure, the documented GI50 for `Cc1ccc(/C=C/C(=O)c2sc(-c3cccnc3)nc2C)cc1` is > 100 µM (inactive)

Sure, the documented GI50 for `O=[N+]([O-])c1ccc2sc(/C=N/c3cnccn3)cc2c1` is 27.8 µM (inactive)

Sure, the documented GI50 for `CC1(C)N=C(N)N=C(N)N1c1cccc(Cl)c1` is 5.56 µM (inactive)

Sure, the documented GI50 for CC(C)C1CC(CO)(CNc2cc(Cl)nc(N)n2)C1 (stereo unspecified) is 1.15 µM (inactive)

Sure, the documented GI50 for COc1ccc2nc(NC(=O)C(=O)C(C#N)c3ccc(CC#N)cc3)sc2c1 (stereo unspecified) is > 100 µM (inactive)

Sure, the documented GI50 for `CC(=O)Nc1c(C)ccc2c1C(=O)c1ccccc1C2=O` is > 100 µM (inactive)

Sure, the documented GI50 for `CCOC(=O)c1cn(CC)c2ccc3ccsc3c2c1=O` is > 100 µM (inactive)

Sure, the documented GI50 for `CSc1nsc(-c2ccccc2)[s+]1.[O-][Cl+3]([O-])([O-])[O-]` is > 100 µM (inactive)

Sure, the documented GI50 for COc1ccc(N2C(=O)C3c4[nH]c5ccc(OC)cc5c4C4CCC(C(C)C)CC4C3C2=O)cc1 (stereo unspecified) is > 100 µM (inactive)

Sure, the documented GI50 for `CC(=O)c1cccc(NC(=O)C(=O)c2c(O)oc3ccccc3c2=O)c1` is > 100 µM (inactive)

Sure, the documented GI50 for `COc1cccc(/C=C2\SC(=S)N(/C=C3\C(=O)Oc4ccccc4C3=O)C2=O)c1O` is 68.2 µM (inactive)

Sure, the documented GI50 for `COC(=O)NC(Nc1ccccn1)(C(F)(F)F)C(F)(F)F` is > 100 µM (inactive)

Sure, the documented GI50 for `CC(=O)O/C=C\OC1CCCC1` is > 100 µM (inactive)

Sure, the documented GI50 for `Cc1nc2c(n1CC(C)(C)C)C(=O)c1ccccc1C2=O` is 80.7 µM (inactive)

Sure, the documented GI50 for COC(=O)CC(NC(=O)OCc1ccccc1)C(=O)NC(CC(=O)OC)C(=O)NC(CC(=O)OC)C(=O)NC(CC(=O)OC)C(=O)NC(CC(=O)OC)C(=O)NC(CC(=O)OC)C(=O)NN (stereo unspecified) (Cbz-D(OMe)D(OMe)D(OMe)D(OMe)D(OMe)D(OMe)-NHNH2; configuration not given here) is > 100 µM (inactive)

Sure, the documented GI50 for `COC(=O)CCCc1c(-c2[nH]c3ccccc3c2CCCC(=O)OC)[nH]c2ccccc12` is > 100 µM (inactive)

Sure, the documented GI50 for COc1cc(C2c3cc4c(cc3[C@@H](Nc3cccc(O)c3)C3COC(=O)[C@H]23)OCO4)cc(OC)c1O (stereo partly specified) is 2.05 µM (inactive)

Sure, the documented GI50 for COC(=O)Cc1c2n(c3ccccc13)C(=O)N1c3ccccc3C(CC(=O)OC)C21 (stereo unspecified) is > 100 µM (inactive)

Sure, the documented GI50 for Nc1cc(C2CCCc3c2[nH]c2ccccc32)ccc1O (stereo unspecified) is 42.4 µM (inactive)

Sure, the documented GI50 for `CC1=CC(=O)[C@@H](O)[C@]2(C)[C@H]3[C@@]4(O)OC[C@]35[C@H]([C@@H](C)[C@H]4O)[C@@H](O)C(=O)O[C@@H]5C[C@@H]12` is 0.276 µM (active)

Sure, the documented GI50 for O=C1OCC2OC(=O)c3cc(O)c(O)c(O)c3-c3c(O)c(O)c(O)c4c3C(=O)OC(C2OC(=O)c2cc(O)c(O)c(O)c2-c2c1cc(O)c(O)c2O)C1OC(=O)C2C4=C(O)C(=O)C23Oc2cc(O)c4c(c2[C@H]13)O[C@H](c1ccc(O)c(O)c1)[C@@H](O)C4 (stereo partly specified) is 29 µM (inactive)

Sure, the documented GI50 for C/C(=C\CBr)CCC(Br)C(C)(C)Br (stereo unspecified) is > 100 µM (inactive)

Sure, the documented GI50 for `CN(C)c1n2c3cc([N+](=O)[O-])ccc3[n+]3c(N(C)C)n4ccccc4c3c2c2cccc[n+]12.[O-][Cl+3]([O-])([O-])[O-].[O-][Cl+3]([O-])([O-])[O-]` is > 100 µM (inactive)

Sure, the documented GI50 for CCc1ccccc1NC(=O)C(=O)C(C#N)c1ccccc1Cl (stereo unspecified) is > 100 µM (inactive)

* * *

tested on: SF-295; test: NCI tumour cell line growth inhibition, 48 h
Calls of active or inactive are those of the source. Cut-off read from the data, not from the text of the source: active = GI50 up to about 1.1 µM and inactive = higher.
For each of the molecules below, state its GI50.

Sure, the documented GI50 for `C[C@]12CC[C@H]3[C@@H](CC=C4C[C@@H](O)CC[C@@]43C)[C@@H]1C/C(=C\c1cccnc1)[C@@H]2O` is 2.55 µM (inactive)

Sure, the documented GI50 for CCOC(=O)C12CCSC1C1(C#N)C(C#N)=CC2(N=P(c2ccccc2)(c2ccccc2)c2ccccc2)n2c(=O)n(-c3ccccc3)c(=O)n21 (centres undefined) is 36.6 µM (inactive)

Sure, the documented GI50 for `Cc1cn2cc(-c3ccncc3)nc2s1` is > 100 µM (inactive)

Sure, the documented GI50 for CN1N=CSC12C(=O)N(c1ccc(Cl)cc1)C(=O)N2c1ccc(Cl)cc1 (centres undefined) is 3.28 µM (inactive)

Sure, the documented GI50 for `CC(=O)Nc1oc(C)c(C)c1S(=O)(=O)c1ccc(Cl)cc1` is 44.6 µM (inactive)

Sure, the documented GI50 for CCCN1CN(C(C(=O)N[C@@H]2C(=O)N3C(C(=O)O)=C(C)CSC23)c2ccc(O)cc2)CSC1=S (some centres undefined) is > 100 µM (inactive)

Sure, the documented GI50 for `CC(=O)O/C=C\OC1CCCC1` is > 100 µM (inactive)

Sure, the documented GI50 for `Cc1ccc(O)c(-c2cc(-c3cccc(Br)c3)c(C#N)c(N)n2)c1` is 22.9 µM (inactive)

Sure, the documented GI50 for `COC(=O)CCCc1c(-c2[nH]c3ccccc3c2CCCC(=O)OC)[nH]c2ccccc12` is > 100 µM (inactive)

* * *

system: 786-0; assay: NCI tumour cell line growth inhibition, 48 h
Activity calls are given as the source filed them. Cut-off read from the data, not from the text of the source: active = GI50 up to about 1.1 µM and inactive = higher.
# output must be one of active, inactive

# input Outcome? `Cc1occc1/C(S)=N\c1ccc(Cl)c(C(=O)OCC(F)(F)F)c1`
# output inactive

# input Outcome? `C/C(=C\CNc1ncnc2c1ncn2CCC(=O)OC(C)(C)C)CO`
# output inactive

# input Outcome? CSc1ncc2c(n1)-c1ccccc1OC2N1CCCCC1 (stereo not given)
# output inactive

# input Outcome? COC(=O)C1(Cc2ccccc2)Cc2c(C)ccc(C)c2C1=O (stereo not given)
# output inactive

# input Outcome? CC1CC/C(=C\c2ccc(F)cc2)C2=C1C(c1ccc(F)cc1)n1c(s/c(=C/c3cccc(Br)c3)c1=O)=N2 (stereo not given)
# output inactive

# input Outcome? `CN1CCN(C)C1c1cccc(C2N(C)CCN2C)c1`
# output inactive

# input Outcome? COc1ccc(C2=NN(C(=O)c3ccccc3)C(O)(c3cc(F)c(Cl)cc3Cl)C2)cc1OC (stereo not given)
# output inactive

# input Outcome? `COP(=O)(/C=C/c1cc(C(=O)OCc2ccccc2)n(S(=O)(=O)c2ccccc2)c1)OC`
# output inactive

# input Outcome? `O=[N+]([O-])c1c(F)c(F)c2c(c1F)N(CCCCCl)c1ccccc1S2`
# output inactive

# input Outcome? O=C1N/C(=N/N=C/C(O)C(O)C(O)C(O)CO)N/C1=C\c1c[nH]c2ccccc12 (stereo not given)
# output inactive

# input Outcome? CN(C)CCNC(=O)c1cccc2c(NC(CCC(N)=O)C(=O)O)c3ccccc3nc12 (stereo not given)
# output inactive

# input Outcome? `Cn1c(=O)c2nc(CCCCC(=O)O)[nH]c2n(C)c1=O`
# output inactive

# input Outcome? `O=[N+]([O-])c1cc(-c2ccc([As](=O)(O)O)cc2)ccc1[As](=O)(O)O`
# output inactive

# input Outcome? `O=C(/C=C/c1cccs1)c1ccc(Cl)cc1`
# output inactive

# input Outcome? O=C1C(Cl)C(c2ccc(Cl)cc2)N1n1cnc2ccccc2c1=O (stereo not given)
# output inactive

# input Outcome? C[C@@H]1CCC2[C@@H](C)[C@@H](OCCO[C@H]3OC4O[C@@]5(C)CCC6[C@H](C)CCC([C@H]3C)[C@@]46OO5)OC3O[C@@]4(C)CCC1[C@]32OO4 (stereo not given in full)
# output active

# input Outcome? `NN/C(=N\S(=O)(=O)c1ccc(-c2ccccn2)s1)Nc1ccc(Cl)cc1`
# output inactive

# input Outcome? CC1=NN(c2ccc(S(=O)(=O)O)cc2)C2(C1)SCC(=O)N2c1nc2ccccc2s1 (stereo not given)
# output inactive

# input Outcome? `[N-]=[N+]=NC12CC3C4CC5CC3C(C1)C(C5)C4C2`
# output inactive

# input Outcome? `CC1=CC(=O)[C@@H](O)[C@]2(C)[C@H]3[C@@]4(O)OC[C@]35[C@H]([C@@H](C)[C@H]4O)[C@@H](O)C(=O)O[C@@H]5C[C@@H]12`
# output active
